Test system: SNB-75 CNS
Assay: NCI tumour cell line growth inhibition, 48 h
ASSAY_READOUT: TGI

Some solved entries appear below for comparison.
INSERT INTO measurements (molecule, assayed_target, value_measured) VALUES
  ('CCNCCNc1cc(-c2ccc(C(F)(F)F)cc2)c(C#N)c2nc3ccccc3n12', 'SNB-75 CNS', '2.54 µM'),
  ('O=C(NCP(=O)(c1ccccc1)c1ccccc1)OCc1ccccc1', 'SNB-75 CNS', '> 100 µM'),
  ('CN=C(SC)N(C)c1nc(=[N+](C)C)ss1', 'SNB-75 CNS', '> 100 µM');

Input CNC(=S)/N=C(\N)N(C)C . Output TGI: > 100 µM

Input O=C1c2ccsc2C(=O)c2sc(CO)cc21 . Output TGI: 0.104 µM

Input CC/C=C\C[C@H](O)C/C=C1/C(=O)C=C[C@@H]1C/C=C\CCCC(=O)OC . Output TGI: 26 µM

Input N#C/C(=C/NC(N)=S)C(N)=O . Output TGI: > 100 µM

Input COc1cc2cc3c4cc(OC)c(OC)cc4cc[n+]3c(C)c2cc1OC (tested in a mixture with another compound) . Output TGI: > 88.3 µM

Input O=C(NC(Cc1ccccc1)(Cc1ccc(O)cn1)C(=O)O)c1ccccc1 (stereo unspecified) . Output TGI: > 100 µM

Input COc1ccc(/C=C/c2c(C(=O)/C=C/c3ccccc3)c(C)nc3ccccc23)cc1 . Output TGI: 4.44 µM

Input C/C(=N/NC(N)=S)c1ccc[nH]1 . Output TGI: > 100 µM
